Parameter pIC50: see the listing below.
system: phosphorylation of Serine 473 in Akt; assay: In Vitro Phospho-Ser473 Akt Assay in MDA-MB-468 cells; type: cell-based; details: Homo sapiens, MDA-MB-468, read-out: IC50 values against mTOR, phospho-Ser473 Akt assay, MDA-MB-468 cells
pIC50: −log10 of the molar value.

{"columns": ["compound", "pIC50"],
 "data": [
  ["C[C@H]1COCCN1c1nc(N2CCOC[C@@H]2C)c2ccc(-c3ccccc3)nc2n1", "> 7.00"],
  ["C[C@H]1COCCN1c1nc(N2CCOC[C@@H]2C)c2ccc(-c3cccc(CNC(=O)C(F)(F)F)c3)nc2n1", "> 6.52"],
  ["COc1ccc(-c2ccc3c(N4CCOC[C@@H]4C)nc(N4CCC(C(=O)c5ccc(Cl)cc5)CC4)nc3n2)cc1CO [Example 18ak]", "> 7.00"],
  ["COc1ccc(-c2ccc3c(N4CCOC[C@@H]4C)nc(N4CCCC(OC)C4)nc3n2)cc1CO (some centres unmarked) [Example 18aj]", "> 6.52"],
  ["C[C@H]1COCCN1c1nc(N2CCOCC2)nc2nc(-c3ccc(Cl)cc3)ccc12 [Example 18di]", "> 6.52"],
  ["COc1ccc(-c2ccc3c(N4CCOC[C@@H]4C)nc(-n4cnc(Br)c4)nc3n2)cc1CO [Example 18bb]", "> 6.52"],
  ["C[C@H]1COCCN1c1nc(N2CCCCC2CO)nc2nc(-c3ccc(N)nc3)ccc12 (some centres unmarked)", "> 6.52"],
  ["COc1ccc(-c2ccc3c(N4CCOC[C@@H]4C)nc(N4CCNCC4)nc3n2)cc1CO [Example 18ca]", "> 6.52"]
]}

Hey, just so you know, these numbers are from patent US9102670B2.
